Catalogue of compounds with associated IC50
Assay: Inhibition of Mycobacterium tuberculosis H37Rv ATP synthase

{"TEST SMILES": "CN(C)CCN1CCN(c2ccc(-c3cc4cc(Br)ccc4nc3OCc3ccc4ccccc4c3)cc2)CC1", "UNITS LABEL": "µM", "IC50": 38.8}
{"TEST SMILES": "CN(C)Cc1ccc(-c2cc3cc(Br)ccc3nc2OCc2ccncc2)cc1", "UNITS LABEL": "µM", "IC50": 20.3}

---

Test: Lipophilicity, log P of the compound at pH 6.5
Assay type: physicochemical
Conditions: buffer
Starred links: 1 amine or outer side, 2 acyl side, 3 side chain; linkers in the order of their positions; H or OH if unused. Non-standard residues stand in square brackets, D forms with d. Residues, ends and D or L forms follow the SMILES beside them. ξ: configuration not given here. *: point of attachment. X1 = CCC(=O)C[C@@H](O)C[C@@H](C)C[C@H](N[*:1])C(=O)[*:2]; Alaψ(CH2NMeCH2CH2OH) = C[C@@H](CN(C)CCO)N*; Decanoyl(2R-Me) = CCCCCCCC[C@@H](C)C(=O)*; Ile(3ξ) = CCC(C)[C@H](N)C(=O)O; ξβ3hP = O=C(O)CC1CCCN1; Aib = CC(C)(N)C(=O)O
RECORDED ENDPOINT: logD

{"COMPOUND": "CCCCCCCC[C@@H](C)C(=O)N1CCCC1CC(=O)N[C@@H](C[C@H](C)C[C@H](O)CC(=O)CC)C(=O)NC(C)(C)C(=O)NC(C)(C)C(=O)N[C@H](C(=O)N[C@H](C(=O)NC(C)(C)C(=O)NC(C)(C)C(=O)N[C@@H](C)CN(C)CCO)C(C)C)C(C)CC (stereo partly drawn) ({Decanoyl(2R-Me)}-[ξβ3hP][X1][Aib][Aib][Ile(3ξ)]V[Aib][Aib]-{Alaψ(CH2NMeCH2CH2OH)})", "RECORDED ENDPOINT": "logD", "RECORDED VALUE": 4.37}

---

Tested on: Mycobacterium tuberculosis
Assay: Antimycobacterial activity against Mycobacterium tuberculosis H37Rv
Format: functional, organism-based
pIC50: −log10 of the molar value.
RECORDED ENDPOINT: pIC50

{"TEST SMILES": "Cc1ccn2c(C(=O)NCc3ccccc3)c(C)nc2c1", "RECORDED ENDPOINT": "pIC50", "RECORDED VALUE": 6.82}
{"TEST SMILES": "Cc1ccn2c(C(=O)NCc3cccc(OC(C)C)c3)c(C)nc2c1", "RECORDED ENDPOINT": "pIC50", "RECORDED VALUE": 6.41}

// data source = ChEMBL document CHEMBL5226287
